# Test system: EHMES-10 cells
# PROTOCOL: WST-1 cell proliferation assay, EHMES-10
# Format: cell-based, human
# PARTICULARS: Homo sapiens, 72 h, read-out: IC50 against EHMES-10 cells
EXPERIMENTAL READOUT: IC50 (µM)
Numbers only; they are read as µM.

q: Please report the recorded IC50 for O=c1cc(N2CCOCC2)oc2c(-c3ccccc3)cccc12 [LY294002] .
a: 20.7

###

# System: MSTO211H cells
# PROTOCOL: WST-1 cell proliferation assay, MSTO211H
# Type: cell-based, human
# PARTICULARS: Homo sapiens, MSTO-211H, 72 h, read-out: IC50 against MSTO211H cells
EXPERIMENTAL READOUT: pIC50
On this scale, pIC50 is minus log10 of a concentration expressed in M (mol/L).

q: I am curious: what pIC50 value has been reported for O=c1cc(N2CCOCC2)oc2c(-c3ccccc3)cccc12 ?
a: 4.52

###

# System: EHMES-10 cells
# PROTOCOL: WST-1 cell proliferation assay, EHMES-10
# Assay type: cell-based, human
# PARTICULARS: read-out: IC50 against EHMES-10 cells; 72 h, WST-1 assay
EXPERIMENTAL READOUT: pIC50
Note: pIC50 values are expressed as the negative base-10 logarithm of concentration in M.

q: I am curious: what pIC50 value has been reported for N#CC(=C(/N)Sc1ccccc1N)/C(C#N)=C(/N)Sc1ccccc1N ?
a: 4.18

Cited source: paper PMC3582904
